Provenance of the data: PubChem BioAssay AID1159580

Each entry below carries its reported normalized growth.
protocol-description: chemical genetic growth profiling, strain panel (AID 1159580);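 further: tested at 20 µM; growth read once vehicle control cultures reached saturation at 30 °C; 1 = growth at the plate median or of vehicle wells; lower values mean less growth of the strain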
reported-conditions: S. cerevisiae deletion strains, growth OD, locus YLR370C, strain arc18, stronger effect = lower value
The campaign covered roughly 5,500 compounds. About 2,000 (36%) were called active. Another 18% or so got no clear call; they are omitted. The list shows a part of the results. Where a SMILES comes first, the peptide text is derived from it. [ ]: non-standard residue; d: D form. Orn = NCCC[CH](N)C(=O)O
Keep it simple and answer with nothing but the number.

compound | measured-property | endpoint-result
Cc1c(NC(=O)c2cccnc2)c(=O)n(-c2ccccc2)n1C | normalized growth | 1

IN: Provide one value: measured normalized growth of CC[C@H]1OC(=O)[C@H](C)[C@@H](O[C@H]2C[C@@](C)(OC)[C@@H](O)[C@H](C)O2)[C@H](C)[C@@H](O[C@@H]2O[C@H](C)C[C@H](N(C)C)[C@H]2O)[C@](C)(O)C[C@@H](C)[C@@H]2N[C@@H](COCCOC)O[C@H]([C@H]2C)[C@]1(C)O
OUT: 0.989

IN: Provide one value: measured normalized growth of COc1ccc2c(c1)[C@]13CCCC[C@H]1[C@H](C2)N(C)CC3
OUT: 0.989

IN: Provide one value: measured normalized growth of c1ccc([C@H]2CN3CCSC3=N2)cc1
OUT: 0.999

IN: Provide one value: measured normalized growth of C1CCC(C(CC2CCCCN2)C2CCCCC2)CC1 (stereo unspecified)
OUT: 0.981

IN: Provide one value: measured normalized growth of CC(C)CC1NC(=O)C(CCCN)NC(=O)C(C(C)C)NC(=O)C2CCCN2C(=O)C(Cc2ccccc2)NC(=O)C(CC(C)C)NC(=O)C(CCCN)NC(=O)C(C(C)C)NC(=O)C2CCCN2C(=O)C(Cc2ccccc2)NC1=O (stereo unspecified) (cyclo(FPV[Orn]LFPV[Orn]L); configuration not given here)
OUT: 0.927

====

protocol-description: chemical genetic growth profiling, strain panel (AID 1159580);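 further: tested at 20 µM; growth read once vehicle control cultures reached saturation at 30 °C; 1 = growth at the plate median or of vehicle wells; lower values mean less growth of the strain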
reported-conditions: S. cerevisiae deletion strains, growth OD, locus YDL035C, strain GPR1, stronger effect = lower value
The campaign covered roughly 5,500 compounds. About 2,000 (36%) were called active. Inconclusive results (about 18%) are left out. The list shows a part of the results.
measured-property: normalized growth
Keep it simple and answer with nothing but the number.

For orientation, consider the following solved cases.
compound | normalized growth
COc1cc(-c2coc3cc(O[C@@H]4O[C@H](CO)[C@@H](O)[C@H](O)[C@H]4O)c(OC)c(O)c3c2=O)cc(O)c1OC | 1.04
CC(NCCC(c1ccccc1)c1ccccc1)c1ccccc1 (stereo not given) | 0.908
CC(=O)c1cc2c(cc1O)OC(C)(C)C=C2 | 1

IN: Provide one value: measured normalized growth of O=C(CCc1ccc(O)cc1)c1c(O)cc(O)cc1O[C@@H]1O[C@H](CO)[C@@H](O)[C@H](O)[C@H]1O
OUT: 1.04

IN: Provide one value: measured normalized growth of Cc1c(NC(=O)c2cccnc2)c(=O)n(-c2ccccc2)n1C
OUT: 0.992

====

protocol-description: chemical genetic growth profiling, strain panel (AID 1159580);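 further: tested at 20 µM; growth read once vehicle control cultures reached saturation at 30 °C; 1 = growth at the plate median or of vehicle wells; lower values mean less growth of the strain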
reported-conditions: S. cerevisiae deletion strains, growth OD, locus YOR061W, strain CKA2, stronger effect = lower value
The whole screen tested about 5,500 compounds, of which about 2,000 (36%) were called active. About 18% were inconclusive and are not listed. The list shows a part of the results.
measured-property: normalized growth

compound | endpoint-result
CC(=O)O[C@H]1CC[C@]2(C)C3CC(=O)[C@]4(C)C(C(C)=O)=CCC4C3CC[C@H]2C1 (some centres undefined) | 1 (inactive)
CC(=O)O[C@H]1CC[C@]2(C)C3CC[C@@]4(C)C(CC5O[C@@]6(CCC(C)CO6)[C@@H](C)C54)C3CC[C@@H]2C1 (some centres undefined) | 0.999 (inactive)
CC(=O)O[C@H]1CC[C@]2(C)C3CC[C@@]4(C)C(CC5O[C@@]6(CCC(C)CO6)[C@@H](C)C54)C3CC[C@H]2C1 (some centres undefined) | 1 (inactive)

Proceed to the following item.
IN: Provide one value: measured normalized growth of NCC1OC(OC2C(CO)OC(OC3C(O)C(N)CC(N)C3OC3OC(CO)C(O)CC3N)C2O)C(N)C(O)C1OC1OC(CO)C(O)C(O)C1O (centres undefined)
OUT: 0.997 (inactive)
